# measurement_target: T1, Human OSM (human, UniProt P13725 26-221)
# T1 construct: Recombinant human OSM; also called hOSM; human Oncostatin M
# T1 sequence: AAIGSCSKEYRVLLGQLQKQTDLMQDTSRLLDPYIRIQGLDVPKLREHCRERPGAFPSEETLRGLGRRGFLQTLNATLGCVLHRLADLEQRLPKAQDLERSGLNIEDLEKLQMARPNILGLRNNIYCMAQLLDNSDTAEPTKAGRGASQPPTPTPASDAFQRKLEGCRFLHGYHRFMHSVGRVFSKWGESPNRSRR
# protocol_text: BIAcore kinetics, transfection supernatant
Reported koff values are given for each entry in this list.
Kindly provide the numeric value in s⁻¹ only, without the unit symbol.

>  <binder>
Humanised 10G8 H0L1(IGKV4-1) (antibody, V domains shown, built from the stated exchange of CDRL2; residue limits derived by me; Human gamma 1/kappa constant regions; also called H0L1(huCDRL2)) VH: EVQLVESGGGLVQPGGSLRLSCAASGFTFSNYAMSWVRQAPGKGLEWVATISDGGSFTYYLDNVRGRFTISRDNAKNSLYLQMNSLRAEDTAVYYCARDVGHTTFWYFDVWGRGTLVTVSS VL: DIVMTQSPDSLAVSLGERATINCRASKSVSAAGYNFMHWYQQKPGQPPKVLIYWASTRESGVPDRFSGSGSGTDFTLTISSLQAEDVAVYYCLHSREFPFTFGGGTKVEIK

>  <unit_descriptor>
s⁻¹

>  <koff>
0.000221

$$$$

[in] Read the entry Humanised 10G8 H0(IGHV3-23)L1(IGK4-1) (antibody, V domains shown, built from the stated exchange of CDRL2; residue limits derived by me; also called H0 IGHV3_23 + L1 IGKV4_1; H0(huCDRH1)L1(huCDRL2)) VH: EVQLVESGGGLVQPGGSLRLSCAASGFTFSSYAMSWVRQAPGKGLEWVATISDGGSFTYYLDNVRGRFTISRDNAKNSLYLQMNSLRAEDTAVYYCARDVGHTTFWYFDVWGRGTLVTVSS VL: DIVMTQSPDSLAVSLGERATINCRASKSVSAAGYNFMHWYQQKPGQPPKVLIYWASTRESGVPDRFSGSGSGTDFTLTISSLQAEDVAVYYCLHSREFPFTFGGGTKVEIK and write its reported koff.
[out] 0.000247

[in] Look up and state reported koff for Humanised 10G8 H0 IGHV3_23 + L1 IGKV1_5 (antibody, V domains shown, built from the stated exchange of CDRL2; residue limits derived by me) VH: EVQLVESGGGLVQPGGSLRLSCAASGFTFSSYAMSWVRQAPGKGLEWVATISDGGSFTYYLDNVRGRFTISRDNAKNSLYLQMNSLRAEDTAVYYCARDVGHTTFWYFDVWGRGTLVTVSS VL: DIVMTQSPDSLAVSLGERATINCRASKSVSAAGYNFMHWYQQKPGQPPKVLIYKASSLESGVPDRFSGSGSGTDFTLTISSLQAEDVAVYYCLHSREFPFTFGGGTKVEIK
[out] 0.00066
